Target: Staphylococcus aureus MurA (Staphylococcus aureus, UniProt Q931H5)
Construct: made in house; host or cells: E. coli
Assay: biochemical
Details: IC50 Staphylococcus aureus MurA, time of preincubation = 0 min
endpoint name: pIC50
pIC50 here: minus log base 10 of the concentration, concentration in moles per litre.

In: Record request: pIC50 value, item COC(=O)[C@]12CCCC(C)(C)[C@@H]1CCc1cc(C(C)C)c(O)c(O)c12 [Compound 4, 20-methyl carnosate]
Out: 4.17

----------
Molecular target: Staphylococcus aureus MurA (Staphylococcus aureus, UniProt Q931H5)
Construct: made in house; host or cells: E. coli
Sequence (Q931H5 1-421): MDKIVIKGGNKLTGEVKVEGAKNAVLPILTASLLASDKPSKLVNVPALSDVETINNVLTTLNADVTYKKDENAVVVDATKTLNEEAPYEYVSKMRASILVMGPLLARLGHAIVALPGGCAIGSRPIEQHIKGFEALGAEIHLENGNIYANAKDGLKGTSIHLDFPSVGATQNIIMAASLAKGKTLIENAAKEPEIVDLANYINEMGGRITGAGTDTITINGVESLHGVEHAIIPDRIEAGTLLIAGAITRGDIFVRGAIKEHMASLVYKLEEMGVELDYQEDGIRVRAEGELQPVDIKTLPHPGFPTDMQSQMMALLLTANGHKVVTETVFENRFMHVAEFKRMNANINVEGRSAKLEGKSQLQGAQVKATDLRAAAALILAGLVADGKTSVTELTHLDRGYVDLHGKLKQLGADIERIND
Experiment: biochemical
Conditions: time of preincubation: 10 min; read-out: IC50 Staphylococcus aureus MurA (converted)
endpoint name: IC50 (µM)
# value in µM; strip the unit string

Consider the worked cases shown below.
molecule="CC(C)c1cc2c(c(O)c1O)[C@@]13CCCC(C)(C)[C@@H]1[C@H](OC3=O)[C@H]2O [Compound 2, rosmanol]" recorded_result=5.7
molecule="C[C@@H]1O[C@@H]1P(=O)(O)O [fosfomycin, reference compound]" recorded_result=0.3
molecule="CC(C)c1cc2c(c(O)c1O)[C@@]13CCCC(C)(C)[C@@H]1C[C@@H]2OC3=O [Compound 1, carnosol]" recorded_result=1.1

Would you kindly look at the next entry?
In: Please report the recorded IC50 for CC(C)c1cc2c3c(c1O)OC(=O)[C@@]31CCCC(C)(C)[C@@H]1CC2 [Compound 6, carnosic acid-γ-lactone] .
Out: 7.9

The origin of these recorded values is paper PMC8698320.
